System: Saccharomyces cerevisiae
Assay: protein stability index of tFT-peptide fusion (C-terminal peptide) (PSI (0-1 scale)); higher = more stable (slower turnover)
Conditions: genetic background: wild type; temperature: 30 C
The label depends only on protein stability index: Satisfied if it is at least 0.7, Not satisfied if it is smaller.

Q: # bool: protein stability index of EATIENLKRLKL [VAS1 C-terminal 12 aa] >= 0.7
Result: Not satisfied

Q: Determine whether this sequence has protein stability index no lower than 0.7: PSIQHDYTMEGW [ATG3 C-terminal 12 aa]
Result: Not satisfied

Q: Please check the record DEWRAKYGGQQV [MES1 C-terminal 12 aa] and state if its protein stability index is at or above 0.7.
Result: Not satisfied

Q: Is reported protein stability index greater than or equal to 0.7 here: KTFINNVINVYH [FRM2 C-terminal 12 aa]
Result: Not satisfied

Q: Quick check: does AADPLSNDALFK [BRX1 C-terminal 12 aa] have protein stability index greater than or equal to 0.7?
Result: Satisfied

Q: Is it the case that FFRYFTFSSSYW [YDR464C-A C-terminal 12 aa] has protein stability index reaching or exceeding 0.7?
Result: Not satisfied

Q: Answer whether protein stability index of QKTAQQKNCSIM [YNL234W C-terminal 12 aa] is greater than or equal to 0.7.
Result: Satisfied

Q: Evaluate LITMIRFVNSQK [DCG1 C-terminal 12 aa] : protein stability index at minimum 0.7?
Result: Not satisfied

Q: Check if protein stability index >= 0.7 (inclusive). Item: RAKTMNRSQSHV [PFK26 C-terminal 12 aa]
Result: Satisfied

Q: Is it the case that RPQYRRIAALEE [PSY3 C-terminal 12 aa] has protein stability index reaching or exceeding 0.7?
Result: Not satisfied

Q: Does VFEVFSRMDMLL [VPS74 C-terminal 12 aa] have a reported protein stability index of at least 0.7?
Result: Satisfied

Q: Quick check: does LTSYINVHLVYV [YNL285W C-terminal 12 aa] have protein stability index greater than or equal to 0.7?
Result: Not satisfied

All values here come from the supplement of paper PMC10724198.
